Target: T1, human TIGIT expressed on cells (human, UniProt Q495A1 22-244)
T1 construct: HEK 293 cells stably expressing human TIGIT, primary human T cells or Jurkat effector cells; the cell is named under assay; also called Human TIGIT HEK
T1 sequence: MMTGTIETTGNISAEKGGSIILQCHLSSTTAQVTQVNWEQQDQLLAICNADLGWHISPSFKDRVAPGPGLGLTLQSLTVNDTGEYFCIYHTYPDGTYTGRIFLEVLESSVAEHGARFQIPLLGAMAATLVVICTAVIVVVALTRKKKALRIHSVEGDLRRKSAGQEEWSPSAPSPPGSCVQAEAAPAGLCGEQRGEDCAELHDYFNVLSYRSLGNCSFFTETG
Test: flow cytometry on HEK 293 cells expressing the target, MFI over parental HEK 293;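 further: bound antibody detected with PE-labelled anti-human IgG, 15 min on ice. FOB equals median fluorescence on TIGIT-positive cells divided by that on target-negative cells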
RECORDED_ENDPOINT: FOB (Fold Over Background) (fold)
Answers are plain numbers, in fold.

Name the reported FOB (Fold Over Background) value associated with the binder Clone 16C (antibody, V domains shown) VH: QVQLVQSGAEVKKPGSSVKVSCKASGGTFREYAISWVRQAPGQGLEWMGGIHPIFGTARYAQKFQGRVTITADESTSTAYMELSSLRSEDTAVYYCTRQSTWHKLYGTDVWGQGTTVTVSS VL: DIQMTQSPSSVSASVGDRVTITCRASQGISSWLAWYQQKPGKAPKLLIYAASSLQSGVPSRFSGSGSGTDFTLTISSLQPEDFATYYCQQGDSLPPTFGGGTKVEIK
208
